# TEST_TARGET: T1, LNX2_3, Q8N448
# T1 sequence (Q8N448 463-564, limits assumed, looked up): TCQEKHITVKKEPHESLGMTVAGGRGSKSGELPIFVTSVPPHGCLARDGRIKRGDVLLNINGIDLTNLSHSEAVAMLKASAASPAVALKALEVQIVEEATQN
# PROTOCOL_NOTES: holdup assay
# Set-up: key: below the threshold = too weak to quantify, mostly under pKd 3.1 to 4
# SETTINGS: plain residues with an end cap or a label only (N-terminal biotin on a linker: ado-ado)
ASSAY_READOUT: pKd

INSERT INTO results (binder, obs_value) VALUES
  ('QGPVETESVV [SLC45A4, Q5BKX6]', 'below the threshold'),
  ('AKPSRISTVV [IQSEC2, Q5JU85]', 'below the threshold'),
  ('HSGYRLNDYV [CLDN14, O95500]', 'below the threshold'),
  ('FNSYSLTGYV [CLDN2, P57739]', 'below the threshold'),
  ('SKENVQETQI [LRRC4B, Q9NT99]', 'below the threshold'),
  ('GQEEQVTTRL [TRPC5, Q9UL62]', 'below the threshold'),
  ('VNKSKLLTDV [KCNA1, Q09470]', 'below the threshold'),
  ('ETQVTAETVI [TMEM225B, P0DP42]', 'below the threshold'),
  ('LSEFKAMDSI [CTNNA1, P35221]', 'below the threshold'),
  ('PKRSFIESNV [TANC1, Q9C0D5]', 'below the threshold'),
  ('SKSNFGSEPL [KIF17, Q9P2E2]', 'below the threshold'),
  ('QGLAERISVL [PRKD2, Q9BZL6]', 'below the threshold'),
  ('YNNCLEILRV [DCAF7, P61962]', 'below the threshold'),
  ('YRLAQESGLV [ABCC6, O95255]', 'below the threshold'),
  ('SSALYGESDL [ACTN2, P35609]', 'below the threshold'),
  ('TLPRKRMSSI [GPRC6A, Q5T6X5]', 'below the threshold');
